test: Cycloheximide Counterscreen for Small Molecule Inhibitors of Shiga Toxin; conditions: cell reporter, cycloheximide protein synthesis inhibition counterscreen
In all, about 300,000 compounds went through this assay and about 37,000 (12%) were called active. Cut-off read from the data, not from the text of the source: active = max response mostly above about 13% (no sharp cut-off); inactive = mostly below about 14%. This is one part of a sample in which actives are shown more often than they occur.
The reply should be one of these categories: active, inactive

The examples below pair each entry with its known result.
Data request: # outcome recorded in this test, key = CC(C)N1CCC(N2CCN(Cc3cccnc3)CC2CCO)CC1 (stereo unspecified)
Data returned: inactive

Data request: So what was the verdict on Cc1cc2c(c(=O)n1C)C(C(C)C)C(C#N)=C(N)O2 (stereo unspecified) in this test?
Data returned: inactive

Data request: Which result was noted for this compound in the test: CC(=O)NCCC(=O)Nc1cc(S(=O)(=O)N2CCCCC2)ccc1Oc1cccc(C)c1
Data returned: inactive

Data request: Which outcome was entered for the compound COc1ccc(NC(=O)C2C3CCC(O3)C2C(=O)O)cc1OC (stereo unspecified) in this test?
Data returned: inactive

Data request: Write down the call the test reported for this compound. Item: O=C(NC(=S)NC1CCS(=O)(=O)C1)c1cccc([N+](=O)[O-])c1 (stereo unspecified)
Data returned: inactive

Continue with the next compound.
Data request: Outcome? CCC(=O)/C(=C(/O)c1ccccc1)c1nc2ccccc2[nH]1
Data returned: active

###

assay: Cycloheximide Counterscreen for Small Molecule Inhibitors of Shiga Toxin; conditions: cell reporter, cycloheximide protein synthesis inhibition counterscreen; hits give high values; note: read at 38.3 µM for the half of the compounds with a filed dose; 0% is about no effect
In all, about 300,000 compounds went through this assay and about 37,000 (12%) were called active. The sample as a whole holds a higher share of actives than the screen did.
EXPERIMENTAL ENDPOINT: max response (%)
Answers are plain numbers, in %.

Take a look at these entries with their results.
Data request: Which max response value is on record for O=C1C(=O)N(CCCO)C(c2ccccc2)/C1=C(\O)c1ccc(Br)cc1 (stereo unspecified) ?
Data returned: 0.724

Data request: Given the molecule COc1ccc(C2NC(=O)c3ccccc3N2)cc1 (stereo unspecified) , what is its reported max response?
Data returned: 19.8

Data request: Reported max response, molecule Cc1ccc(C2Nc3cccc4cccc(c34)N2)cc1 : ____
Data returned: 2.47

Data request: Bench note: what max response did CCOCc1nnc(NC(=O)CSc2ccc(C)cc2)s1 show?
Data returned: -1.61

Data request: Dear colleague, I am looking for the recorded max response of the following molecule: Cc1ccc(C(=O)Cc2nnc(C)s2)cc1
Data returned: 43.7

Data request: I am curious: what max response value has been reported for C=CCOc1cccc(C2NC(=O)c3ccccc3O2)c1 (stereo unspecified) ?
Data returned: 11.8

Data request: Dear colleague, I am looking for the recorded max response of the following molecule: CC(C)(C)NC(=O)CSc1nnc(NC(=O)CCc2ccccc2)s1
Data returned: -0.182

Data request: Requested read-out: max response. Entry: Fc1ccc(-n2c(Cc3ccccc3)nnc2SCc2nc(-c3ccc(Cl)cc3)no2)cc1
Data returned: -3.26

Data request: // lookup max response for COc1ccc(N2CCN(C(=O)C3CCN(C(=O)c4ccccc4Cl)CC3)CC2)cc1
Data returned: 0.346

Data request: Which measured max response value corresponds to Cc1ccc(C(=O)Cn2cccn2)cc1 ?
Data returned: 6.54

Next up:
Data request: Recorded max response for CCn1cc(CN2CCC(C(=O)Nc3cccc(-c4cccc(Cl)c4)c3)CC2)c(C)n1 , please?
Data returned: -9.71

###

Hi there, I'd appreciate the recorded max response for every entry that follows.
assay: Cycloheximide Counterscreen for Small Molecule Inhibitors of Shiga Toxin; settings: cell reporter, cycloheximide protein synthesis inhibition counterscreen; hits give high values; note: read at 38.3 µM for the half of the compounds with a filed dose; 0% is about no effect
Out of some 300,000 compounds screened, about 37,000 (12%) were called active. For the sample, actives were picked, then their nearest neighbours and some compounds at random.
Numbers only, in %.

Look over these answered cases.
Data request: Report max response for COc1cc(NC(=O)c2ccc3c(c2)OCO3)ccc1NC(=O)c1cccs1 please.
Data returned: 17.8

Data request: Requested field: max response. Item: COC(=O)[C@@H](Cc1ccccc1)NC(=O)NCCc1ccccc1
Data returned: 6.92

Data request: Fill blank: measured max response of the compound COc1ccc2c(c1)c(C(=O)N/N=C/c1cccs1)c(C)n2C is ____.
Data returned: -3.51

Data request: Request the reported max response associated with COc1cc(NC(=O)COc2ccccc2Cl)ccc1NC(=O)C(C)C
Data returned: 0.487

Data request: Query (compound): COCCNC(=O)COc1ccc(C)c(C)c1 ; field requested: max response
Data returned: 9.18

Data request: Query: max response; subject: CN1CCN(C(=O)/C(=C\c2ccc3c(c2)OCO3)NC(=O)c2cccs2)CC1
Data returned: -1.19

Data request: Could you tell me which max response is on file for c1ccc(-n2nc3ccccc3n2)cc1 ?
Data returned: 10.4

Data request: Fill blank: measured max response of the compound O=C1/C(=C/c2ccc(F)cc2)SC(=S)N1CCCC(=O)N1CCCCC1CCO (stereo not drawn) is ____.
Data returned: 0.37

Respectfully, I request max response for each entry included below.
1. CCC(=O)c1cc2c(cc1NC(=O)c1cccs1)OCCO2
2. O=C1CCC(=O)N(c2ccccc2)N1
3. CN1CCC(CN)(N2CCN(c3ccccc3)CC2)CC1

Data returned:
-4.08
4.98
-3.21

List reported max response for each of these compounds:
1. NC(=O)C1=C[C@H](c2csc3ccccc23)C[C@H](OCc2ccc(CO)cc2)O1
2. CCC(=O)OCc1c(C(F)(F)F)nn(C)c1Oc1cccc(C(F)(F)F)c1
3. COc1ccc(C(=O)NNC(=O)c2cc(C)[nH]n2)cc1
4. Cc1ccc(-c2nn(C(C)(C)C)c3ncnc(N)c23)cc1
5. NC(=O)C1=C[C@@H](c2csc3ccccc23)C[C@@H](OCc2ccc(CO)cc2)O1
6. CN(Cc1cnccn1)C(=O)c1cc(COc2cccc(C(F)(F)F)c2)on1
7. Cc1ccc(OCc2cc(C(=O)N(C)CCc3ccccc3)no2)cc1C
8. CN(Cc1cccnc1)C(=O)c1cc(COc2ccc3ncccc3c2)on1

Data returned:
[20.4, -1.08, 3.07, -0.92, -2.5, 37.1, 62.4, 7.18]

// input: 2 compounds below; output: max response for each
1. C/C(=N/OC(=O)c1cccc(C(F)(F)F)c1)c1cnccn1
2. Cc1ccc(N(CC(=O)NC2CCCCC2)C(=O)CCCC(=O)Nc2ccccn2)c(C)c1

Data returned:
1: -2.87; 2: -2.99

Could you report max response for every entry in the following list?
1. Cc1ccc(-n2ncc3c(Nc4cccc(C(=O)O)c4)ncnc32)cc1
2. O=C1CCCc2nn(-c3ccccc3)nc21

Data returned:
1: 45.3; 2: 31.9

###

experiment: Cycloheximide Counterscreen for Small Molecule Inhibitors of Shiga Toxin; conditions: cell reporter, cycloheximide protein synthesis inhibition counterscreen; note: read at 38.3 µM for the half of the compounds with a filed dose; 0% is about no effect
About 37,000 (12%) of roughly 300,000 compounds were called active. No stated cut-off is given here; in the data, active means max response mostly above about 13% (no sharp cut-off); inactive means mostly below about 14%. The sample holds actives, similar compounds and a random draw of the others, so the mix is not that of the screen.
Please state which outcome applies, choosing from active, inactive

Data request: I would be grateful if you could indicate the recorded call for COc1ccc(C2Nc3ccccc3C(=O)N2Cc2ccccc2)cc1Cn1nnc2ccccc21 (stereo not drawn) .
Data returned: inactive

***
Data request: Answer briefly: the call reported for Cc1cccc(NC(=O)NC2(C)CCS(=O)(=O)C2)c1 (stereo not drawn) in this assay.
Data returned: inactive

Data request: How did this test come out for O=c1c(-c2ccccc2)coc2c(CN3CCOCC3)c(O)ccc12 ?
Data returned: inactive

Data request: Given CC1CCN(C2=NC(=O)/C(=C/c3ccc(O)cc3)S2)CC1 , state the outcome it received in this test.
Data returned: active

Data request: I'd appreciate the recorded outcome for COc1cc(C(=O)N[C@@H](C)C(=O)NCc2ccco2)cc(OC)c1OC from this test.
Data returned: inactive

Data request: Hey, what did the test say about CCOc1ccc(/C=C2\SC(=S)N(NC(=O)c3ccncc3)C2=O)cc1OC ?
Data returned: inactive

###

test: Cycloheximide Counterscreen for Small Molecule Inhibitors of Shiga Toxin; settings: cell reporter, cycloheximide protein synthesis inhibition counterscreen; note: read at 38.3 µM for the half of the compounds with a filed dose; 0% is about no effect
In all, about 300,000 compounds went through this assay and about 37,000 (12%) were called active. No stated cut-off is given here; in the data, active means max response mostly above about 13% (no sharp cut-off); inactive means mostly below about 14%. What follows is part of a selection rich in actives, with near analogues and random picks from the rest.
Mark one answer only. Choices: yes (active), no (inactive)

The examples below pair each entry with its known result.
Data request: Write down the call the test reported for this molecule. Item: CCCN(CCC)C(=O)C1c2ccccc2Oc2ccccc21
Data returned: no

Data request: // outcome(item) with item = O=C(NCCS(=O)(=O)N1CCN(c2ccccc2F)CC1)c1ccc(Br)o1
Data returned: no

Data request: Name the outcome recorded for O=C(CN1CCN(S(=O)(=O)/C=C/c2ccccc2)CC1)Nc1ccc(N2CCOCC2)cc1 in the assay.
Data returned: no

Data request: Answer briefly: the call reported for COc1ccccc1-n1c(O)c(C=NC2CC2)c(=O)[nH]c1=O in this assay.
Data returned: no

Data request: Hi team, can someone confirm the assay call for O=C(c1ccc(S(=O)(=O)N2CCOCC2)cc1)N1CCN(c2ccccc2)CC1 ?
Data returned: no

Next:
Data request: Query: recorded result category for COC(=O)[C@@H]1CC[C@H](C)[C@@H](c2ccc(C)cc2)N1C(=O)c1ccc(/C=N/O[C@H](C)c2cn([C@@H]3COC[C@H]3O)nn2)cc1 in this test
Data returned: no

Data request: // outcome(item) with item = O=C(O)c1ccc2c(c1)C(=O)N(c1ccc(/C=C/C(=O)c3ccccc3)cc1)C2=O
Data returned: yes

Data request: Hello, I am checking results. What call was entered for O=C(/C=C/c1ccc(N2CCOCC2)cc1)c1ccccc1 ?
Data returned: yes

Data request: Returns: the outcome recorded for O=C(Nc1cc(=O)[nH]c2ncnn12)c1ccccc1Cl in this assay.
Data returned: no

Data request: Per the assay record, what outcome was assigned to CC(=O)Oc1ccc(C)cc1N1C(=O)c2ccc(C(=O)O)cc2C1=O ?
Data returned: no
